# TEST_DETAILS: small-molecule binders of probe aInhba, primary screen, biochemical, small-molecule microarray, 635/667 nm fluorescence (AID 1148);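 also: score merges 667nm spot fluorescence with signal-to-noise for antibody binding to printed compounds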
# REPORTED_CONDITIONS: higher = more signal
MEASURED_METRIC: composite z-score
No unit in the answer, only the number.

Before answering, review these 5 worked examples.
MOLECULE: O=C1C2=CC[C@H]3C(=O)N(c4cccc(Oc5ccccc5)c4)C(=O)[C@H]3[C@H]2[C@H](O)[C@@H]2O[C@H]12
OBSERVED_RESULT: -0.239

MOLECULE: COc1cccc([C@H]2Oc3ccc(OC)cc3C(=NOC(C)CN3CCCCc4nc(C)c(C)cc43)[C@@H]2O)c1 (some centres not stated)
OBSERVED_RESULT: -0.024

MOLECULE: CC(C)(C)N1C(=O)[C@H]2[C@H]3[C@H](O)[C@H](O)CC(=NOCc4ccccc4)[C@H]3CC[C@H]2C1=O
OBSERVED_RESULT: 0.0342

MOLECULE: CO[C@H]1COC(=O)[C@@H](C)COC(=O)[C@H](COCc2ccccc2)NC(=O)CC=C[C@H]1C
OBSERVED_RESULT: -0.203

MOLECULE: O=C(NN=C1C[C@@H](O)[C@@H](O)[C@@H]2[C@@H]3C(=O)N(Cc4ccccc4)C(=O)[C@@H]3CC[C@@H]12)OCc1ccccc1
OBSERVED_RESULT: -0.239

Query: Which composite z-score value belongs to CC(C)=CCCC(C)=CCON=C1C[C@@H](O)[C@@H](O)[C@@H]2[C@@H]3C(=O)N(Cc4ccccc4)C(=O)[C@@H]3CC[C@@H]12 ?
Reply: -0.157

Query: What would you report for O=C(NN=C1C[C@@H](O)[C@@H](O)[C@@H]2[C@@H]3C(=O)N(C4CCCCC4)C(=O)[C@@H]3CC[C@H]12)OCc1ccccc1 ?
Reply: -0.082

---

# Test system: Noggin (protein binding on small-molecule microarray)
# TEST_DETAILS: Noggin binders on small-molecule microarray, primary screen, biochemical, 635/667 nm fluorescence (AID 1095);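 also: score merges 667 nm feature fluorescence with signal to noise over triplicate slides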
# REPORTED_CONDITIONS: 635 nm fluorescence, higher = more signal
# label = yes (1) if composite z-score >= 0.3 else no (0)

MOLECULE: CCOC(=O)[C@H](Cc1ccccc1)NC(=O)OC1CC(CCC2CC(CC)=NO2)OC2(CCCC(COC(=O)NCCC(C)C)O2)C1 (some centres undefined)
CATEGORY_LABEL: yes (1)

Next molecule, please.
Query: Exam item: decide whether the reported composite z-score for CC(CCN1CCc2nc(-c3ccccc3)c(-c3ccccc3)cc2C1)=NOC[C@@H](O)[C@H]1O[C@@H]2OC(C)(C)O[C@@H]2[C@H]1O is at least 0.3.
Reply: yes (1)

---

Each record here notes measured composite z-score.
# TEST_DETAILS: small-molecule microarray binders of probe aDKK1, primary screen, biochemical, biotinylated probe, 635/667 nm fluorescence (AID 1099);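 also: score merges 667nm spot fluorescence with signal to noise across triplicate slides; reference of the scale not given here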
# REPORTED_CONDITIONS: higher = more signal

COMPOUND: CCOC(=O)C1=NO[C@@]2(C=C(Br)C3(OCCCO3)[C@H]3O[C@H]32)C1
composite z-score: -0.042
--
COMPOUND: CC(CCN1CCCc2nc(C)c(C)cc21)=NOC(C)CN1CCCCc2nc(C)c(C)cc21 (configuration not stated)
composite z-score: 0.0616
--
COMPOUND: C#CCCCON=C1C[C@@H](O)[C@@H](O)[C@@H]2[C@@H]3C(=O)N(CC)C(=O)[C@@H]3CC[C@@H]12
composite z-score: -0.129
--
COMPOUND: COC(=O)CC=C[C@@H](C)[C@@H](C=NO[C@@H](C)c1cn([C@H](CO)Cc2ccccc2)nn1)NS(=O)(=O)c1ccc(C)cc1
composite z-score: -0.0838
--
COMPOUND: CO[C@@H]1COC(=O)[C@H](CCSC)NC(=O)CC=C[C@@H](C)COC(=O)[C@H](C)NC(=O)CC=C[C@H]1C
composite z-score: -0.34

Query: Which composite z-score value belongs to COc1ccc(COC(=O)NN=C2C[C@@H](O)[C@@H](O)[C@@H]3[C@@H]4C(=O)N(C5CCCCC5)C(=O)[C@@H]4CC[C@H]23)cc1 ?
Reply: 1.07

Query: What would you report for C[C@@H](c1ccccc1)N1C(=O)[C@H]2[C@H]3[C@H](O)[C@H](O)CC(=NO[C@@H]4O[C@H](CO)[C@@H](O)[C@H](O)[C@H]4O)[C@@H]3CC[C@H]2C1=O ?
Reply: -0.193

---

# TEST_DETAILS: binders of probe aFGF2 on microarray, primary screen, stem cell growth factor project, biochemical, small-molecule microarray, fluorescence 635/667 (AID 1067);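 also: measures binding of biotinylated aFGF2 protein to printed compounds on slides; z-score merges feature fluorescence and signal-to-noise across triplicate slides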
# REPORTED_CONDITIONS: higher = more signal
MEASURED_METRIC: composite z-score

Before answering, review these 5 worked examples.
COMPOUND: Cc1ccc(S(=O)(=O)OC[C@H]2CN3[C@H](c4ccc(Br)cc4)[C@@H](C)CC[C@H]3C(=O)O2)cc1
composite z-score: -0.106
//
COMPOUND: CCOC(=O)[C@H](CC(C)C)NC(=O)CCC1CC(OC(=O)NCCc2ccc(F)cc2)CC2(CCCC(COC(=O)NCCC(C)C)O2)O1 (stereo partly drawn)
composite z-score: -0.083
//
COMPOUND: CON=C1[C@H]2CCn3c(=O)n(-c4ccccc4)c(=O)n3[C@H]2[C@H](O)[C@@H]2O[C@H]12
composite z-score: -0.0533
//
COMPOUND: CC(CCN1CCc2nc(-c3ccccc3)c(-c3ccccc3)cc2C1)=NOC[C@@H](O)COCc1ccco1
composite z-score: -0.0598
//
COMPOUND: O=C1C=C[C@@H](O)[C@@H]2[C@@H]3C(=O)N(C[C@@H]4CCCO4)C(=O)[C@@H]3CC[C@@H]12
composite z-score: -0.103

Query: Which composite z-score value belongs to CC(CCN1CCCCc2nc(C)c(C)cc21)=NOC[C@@H](C)[C@H](OCc1ccccc1)C(C)C ?
Reply: -0.29

Query: What would you report for CCCNC(=O)OC[C@H]1O[C@H](CCON=C(C)C)C=C[C@@H]1Oc1ccc(OC)cc1 ?
Reply: -0.0598

Query: What would you report for COCOc1ccc(Br)cc1C(=O)[C@@H]1O[C@H]1c1cccc(OC)c1 ?
Reply: -0.122

---

Each record here notes measured composite z-score.
# SUBJECT_OF_TEST: E3 ubiquitin-protein ligase XIAP (Homo sapiens)
# TEST_DETAILS: XIAP binders, primary screen, biophysical, small-molecule microarray, fluorescence 635 nm (AID 1181);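 also: score merges 667 nm emission and signal to noise over triplicate slides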
# REPORTED_CONDITIONS: small-molecule microarray binding, higher = more signal
No unit in the answer, only the number.

COMPOUND: CCOC(=O)[C@H](CC(C)C)NC(=O)CCC1CC(OC(=O)NCc2ccc3c(c2)OCO3)CC2(CCCC(COC(=O)NCC3CCCCC3)O2)O1 (stereo not given in full)
OBSERVED_RESULT: -0.0053

Query: Which composite z-score value belongs to CC(C)CON=C1[C@H]2CCn3c(=O)n(Cc4cc5c(cc4Cl)OCO5)c(=O)n3[C@H]2[C@H](O)[C@@H]2O[C@H]12 ?
Reply: -0.0773

Query: What would you report for C#CCCCON=C1C[C@@H](O)[C@@H](O)[C@@H]2[C@@H]3C(=O)N(C(C)(C)C)C(=O)[C@@H]3CC[C@H]12 ?
Reply: -0.0849

Query: What would you report for Cn1c(=O)n2n(c1=O)[C@H]1[C@H](O)[C@@H]3O[C@@H]3C(=NOCc3ccccc3)[C@H]1CC2 ?
Reply: -0.222

Query: What would you report for C[C@@H]1CC[C@H]2C(=O)O[C@@H](Cc3ccccc3)CN2[C@H]1c1ccc(Br)cc1 ?
Reply: 0.0871

Query: What would you report for COC(=O)CC=C[C@H](C)[C@@H](OCc1cccc(Br)c1)[C@@H](C)[C@H](OC)C1CCCCC1 ?
Reply: -0.318

Query: What would you report for CO[C@H]1COC(=O)[C@@H](C)COC(=O)[C@H](C)NC(=O)CC=C[C@H]1C ?
Reply: -0.327

Query: What would you report for O=C1[C@H]2[C@H]3[C@H](O)[C@H](O)CC(=NOC[C@@H](O)COCc4ccco4)[C@H]3CC[C@H]2C(=O)N1c1ccc(F)cc1F ?
Reply: -0.446

Query: What would you report for COC(=O)CC=C[C@@H](C)[C@@H](C=NO[C@H](C)c1cn([C@H](CO)Cc2ccccc2)nn1)OC ?
Reply: -0.142

Query: What would you report for Cc1ccc(S(=O)(=O)OC[C@H]2CN3[C@H](c4ccc(Br)cc4)[C@@H](C)CC[C@H]3C(=O)O2)cc1 ?
Reply: 0.201

Query: What would you report for COC(=O)CC=C[C@@H](C)[C@@H]1C=C[C@H](O)[C@@H](CO)O1 ?
Reply: 0.0727

Query: What would you report for COC(=O)CC=C[C@@H](C)[C@@H](C=NOC[C@H]1O[C@H](c2ccccc2)C=C[C@@H]1Oc1ccc(OC)cc1)NS(=O)(=O)c1ccc(C)cc1 ?
Reply: -0.167

Query: What would you report for CC(CCN1CCc2nc(-c3ccccc3)c(-c3ccccc3)cc2C1)=NOC[C@@H](O)COCc1ccco1 ?
Reply: 0.239

Query: What would you report for C#CCCCON=C1C[C@@H](O)[C@@H](O)[C@@H]2[C@@H]3C(=O)N(c4ccc(F)cc4F)C(=O)[C@@H]3CC[C@H]12 ?
Reply: 0.199

Query: What would you report for O=C1C=C[C@@H](O)[C@@H]2[C@@H]3C(=O)N(c4ccc(F)cc4F)C(=O)[C@@H]3CC[C@@H]12 ?
Reply: -0.102

Query: What would you report for COC(=O)CC=C[C@@H](C)[C@@H](C=NO[C@H](C)c1cn([C@@H]2COC[C@H]2O)nn1)NS(=O)(=O)c1ccc(C)cc1 ?
Reply: -0.267

Query: What would you report for CCOC(=O)C1=NO[C@]2(C=C(Br)C3(OCCCO3)[C@H]3O[C@H]32)C1 ?
Reply: 0.201

Query: What would you report for C[C@H]1COC(=O)[C@@H]2CCCN2C(=O)[C@@H](C)COC(=O)[C@H](Cc2ccccc2)NC1=O ?
Reply: 1.05

Query: What would you report for CCOC(=O)NN=C1C[C@@H](O)[C@@H](O)[C@@H]2[C@@H]3C(=O)N([C@@H](C)c4ccccc4)C(=O)[C@@H]3CC[C@@H]12 ?
Reply: -0.202

Query: What would you report for O=c1n(Cc2cc3c(cc2Cl)OCO3)c(=O)n2n1CC[C@@H]1C(=NOCc3ccccc3)[C@H]3O[C@H]3[C@@H](O)[C@@H]12 ?
Reply: -0.0365

Query: What would you report for C=CC[C@@H]1C=C[C@H](ON=C2[C@H]3CCn4c(=O)n(-c5ccccc5)c(=O)n4[C@H]3[C@H](O)[C@@H]3O[C@H]23)[C@@H](CO)O1 ?
Reply: -0.0663
